STUDY_TARGET: UniProt:Q9NYK1
Sequence (Q9NYK1 27-1049): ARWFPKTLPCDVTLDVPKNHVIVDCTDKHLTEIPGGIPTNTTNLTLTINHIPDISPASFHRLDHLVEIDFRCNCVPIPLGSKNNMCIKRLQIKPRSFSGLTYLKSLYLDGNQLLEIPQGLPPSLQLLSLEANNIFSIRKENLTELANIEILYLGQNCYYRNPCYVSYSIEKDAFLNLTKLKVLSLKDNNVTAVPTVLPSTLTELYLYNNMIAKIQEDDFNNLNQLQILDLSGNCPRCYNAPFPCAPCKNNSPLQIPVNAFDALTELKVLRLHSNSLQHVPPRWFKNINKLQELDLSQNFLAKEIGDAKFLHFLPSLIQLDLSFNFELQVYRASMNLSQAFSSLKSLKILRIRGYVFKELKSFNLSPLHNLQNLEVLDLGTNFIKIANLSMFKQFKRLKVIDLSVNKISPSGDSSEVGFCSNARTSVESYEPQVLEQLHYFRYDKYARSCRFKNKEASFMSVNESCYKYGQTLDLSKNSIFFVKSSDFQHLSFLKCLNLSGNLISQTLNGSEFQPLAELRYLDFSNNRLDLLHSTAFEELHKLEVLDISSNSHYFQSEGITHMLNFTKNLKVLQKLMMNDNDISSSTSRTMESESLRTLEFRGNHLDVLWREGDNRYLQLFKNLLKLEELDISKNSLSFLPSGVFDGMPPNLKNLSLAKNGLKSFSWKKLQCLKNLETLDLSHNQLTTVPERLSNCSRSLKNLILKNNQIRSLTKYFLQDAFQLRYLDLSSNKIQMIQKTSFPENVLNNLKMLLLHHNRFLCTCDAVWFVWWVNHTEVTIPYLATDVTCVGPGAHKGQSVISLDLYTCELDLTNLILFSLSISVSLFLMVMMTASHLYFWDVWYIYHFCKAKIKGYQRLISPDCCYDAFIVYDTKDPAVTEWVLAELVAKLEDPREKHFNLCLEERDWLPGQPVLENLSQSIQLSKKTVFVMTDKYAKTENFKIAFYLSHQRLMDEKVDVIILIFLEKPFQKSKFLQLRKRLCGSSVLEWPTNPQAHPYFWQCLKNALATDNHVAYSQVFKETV
MEASUREMENT_PROTOCOL: TLR7 inhibition reporter assay (HEK-Blue cells, SEAP reporter, gardiquimod stimulation)
Format: cell-based
APPLIED_CONDITIONS: HEK-Blue cells overexpressing human TLR7, gardiquimod 7.5 μM
IC50 under 10 nM gets condition met, anything at or over 10 nM gets condition not met.

{"COMPOUND": "CCc1c(-c2cc(F)nc(F)c2)[nH]c2ccc(C3CCN(C4CCN(CC(C)C)CC4)CC3)cc12", "ASSIGNED_CLASS": "condition not met"}
{"COMPOUND": "Cc1cc(-c2[nH]c3ccc(C4CCN(C5CCN(C(C)C)CC5)CC4)cc3c2C(C)C)ccn1", "ASSIGNED_CLASS": "condition met"}
{"COMPOUND": "Cc1cc(-c2[nH]c3ccc(C4CCN(CC5CCCCC5)CC4)cc3c2C(C)C)cc(C)n1", "ASSIGNED_CLASS": "condition not met"}
{"COMPOUND": "Cc1cc(-c2[nH]c3ccc(C4CCN(CC5CCN(C(C)C)C5)CC4)cc3c2C(C)C)cc(C)n1 (centres unmarked)", "ASSIGNED_CLASS": "condition met"}
{"COMPOUND": "CCc1c(-c2cc(C)nc(C)c2)[nH]c2ccc(C3CCN(CC(=O)N(C)C)CC3)cc12", "ASSIGNED_CLASS": "condition not met"}
{"COMPOUND": "Cc1cc(-c2[nH]c3ccc(C4CCNCC4(F)F)cc3c2C(C)C)cc(C)n1 (single isomer, unassigned) [Example 489A]", "ASSIGNED_CLASS": "condition met"}
{"COMPOUND": "Cc1cc(-c2[nH]c3ccc(C4CCN(Cc5cncnc5)CC4)cc3c2C(C)C)cc(C)n1", "ASSIGNED_CLASS": "condition not met"}
{"COMPOUND": "CCc1c(-c2ccnc(C)c2C)[nH]c2ccc(C3CCNCC3)cc12", "ASSIGNED_CLASS": "condition not met"}
{"COMPOUND": "Cc1cc(-c2[nH]c3ccc(C4CCN(Cc5cnn(C)c5)CC4)cc3c2C(C)C)cc(C)n1", "ASSIGNED_CLASS": "condition met"}
{"COMPOUND": "Cc1cc(-c2[nH]c3ccc(C4CCN(C(=O)CN5CC6(COC6)C5)CC4)cc3c2C(C)C)cc(C)n1", "ASSIGNED_CLASS": "condition met"}
{"COMPOUND": "CCc1c(-c2ccnc(C)c2)[nH]c2ccc(C3CCN(C(=O)C4CCNC4)CC3)cc12 (centres unmarked) [Example 595]", "ASSIGNED_CLASS": "condition not met"}
{"COMPOUND": "CCc1c(-c2ccnc(N)c2)[nH]c2ccc([C@@H]3CCNC[C@H]3F)cc12", "ASSIGNED_CLASS": "condition not met"}
{"COMPOUND": "Cc1cc(-c2[nH]c3ccc(C4CCNCC4O)cc3c2C(C)C)cc(C)n1 (single isomer, unassigned) [Example 488B]", "ASSIGNED_CLASS": "condition met"}
{"COMPOUND": "Cc1cc(-c2[nH]c3ccc(C4CCN(CC5CCOC5)CC4)cc3c2C(C)C)cc(C)n1 (centres unmarked)", "ASSIGNED_CLASS": "condition met"}
{"COMPOUND": "Cc1nccc(-c2[nH]c3ccc(C4CCNCC4)cc3c2C(C)C)c1Cl", "ASSIGNED_CLASS": "condition not met"}
{"COMPOUND": "Cc1cc(-c2[nH]c3ccc(C4CCN(C5CCCC5)CC4)cc3c2C(C)C)cc(C)n1", "ASSIGNED_CLASS": "condition not met"}
{"COMPOUND": "Cc1cc(-c2[nH]c3ccc(C4CCN(CC(=O)N5CCOCC5)CC4)cc3c2C(C)C)cc(C)n1", "ASSIGNED_CLASS": "condition met"}
{"COMPOUND": "Cc1cc(-c2[nH]c3ccc(C4CCN(C5CCOCC5)CC4)cc3c2C(C)C)c(C)cn1", "ASSIGNED_CLASS": "condition not met"}
{"COMPOUND": "Cc1cc(-c2[nH]c3ccc(C4CCN(C(=O)Cn5ccnn5)CC4)cc3c2C(C)C)cc(C)n1", "ASSIGNED_CLASS": "condition met"}
{"COMPOUND": "CC(C)c1c(-c2ccnc(C#N)c2C(F)(F)F)[nH]c2ccc(C3CCNCC3)cc12", "ASSIGNED_CLASS": "condition not met"}

Origin of the recorded values: patent US10660877B2
